Listing of entries alongside the reported GI50.
- Test system: OVCAR-8
- experiment: NCI tumour cell line growth inhibition, 48 h
Calls of active or inactive are those of the source. Rule as the data show it: active = GI50 up to about 1.1 µM and inactive = higher.

INSERT INTO results (compound, assay_system, result) VALUES
  ('C=CCOC(=O)C1CCC(=O)N1C(=O)C(Cl)Cl (stereo not drawn)', 'OVCAR-8', '> 100 µM (inactive)');

Q: Consider the compound Cc1cc(Cl)ccc1NC1=NC(=O)C(CC(=O)Nc2cccc(Cl)c2)S1 (stereo not drawn) and give its measured GI50.
Result: > 100 µM (inactive)

Q: Given COc1ccc(C(=O)c2sc(Nc3ccccc3)nc2N)cc1 , state its recorded GI50.
Result: 29 µM (inactive)

Q: # input compound: O=C(O)CNC(=O)c1c2ccccc2nc2ccccc12 ; wanted: its GI50
Result: > 100 µM (inactive)
